# System: SK-OV-3
# procedure text: Growth inhibition of human SKOV3 cells assessed as cell growth at 10^-4 M by sulforhodamine B assay
# Format: functional
# cond: read-out: Activity
For each entry below, report its growth at 100 µM value.
One number for each entry, in %.

>>> reported_measurement("CC(C)=CC(=O)O[C@@H]1CC(C)(C)C[C@H]2C3=CC[C@@H]4[C@@]5(C)CC[C@H](O)C(C)(C)[C@@H]5CC[C@@]4(C)[C@]3(C)CC[C@@]12C(=O)O [Reduced Lantadene B]")
-62

Dear colleague, could you please provide growth at 100 µM for the compounds listed below?
1. C/C=C(/C)C(=O)O[C@@H]1CC(C)(C)C[C@H]2C3=CC[C@@H]4[C@@]5(C)CCC(=O)C(C)(C)[C@@H]5CC[C@@]4(C)[C@]3(C)CC[C@@]12C(=O)O [LANTADENE A]
2. CC1(C)C[C@@H](O)[C@]2(C(=O)O)CC[C@]3(C)C(=CC[C@@H]4[C@@]5(C)C/C(=C\C=C\c6ccccc6)C(=O)C(C)(C)[C@@H]5CC[C@]43C)[C@@H]2C1
3. C/C=C(/C)C(=O)O[C@@H]1CC(C)(C)C[C@H]2C3=CC[C@@H]4[C@@]5(C)CC[C@H](O)C(C)(C)[C@@H]5CC[C@@]4(C)[C@]3(C)CC[C@@]12C(=O)O [Reduced Lantadene A]

1. 32
2. -84
3. 4

Please state recorded growth at 100 µM (tested on SK-OV-3) of "CC(C)=CC(=O)O[C@@H]1CC(C)(C)C[C@H]2C3=CC[C@@H]4[C@@]5(C)CCC(=O)C(C)(C)[C@@H]5CC[C@@]4(C)[C@]3(C)CC[C@@]12C(=O)O"
15

---

# System: DU-145
# procedure text: Growth inhibition of human DU145 cells assessed as growth inhibition at 10 uM by sulforhodamine B assay
# Assay type: functional
# cond: read-out: GI
measured quantity: inhibition of growth at 10 µM (%)
One number for each entry, in %.

State recorded inhibition of growth at 10 µM for all listed compounds.
1. CC1(C)C[C@@H](O)[C@]2(C(=O)O)CC[C@]3(C)C(=CC[C@@H]4[C@@]5(C)C/C(=C\C=C\c6ccccc6)C(=O)C(C)(C)[C@@H]5CC[C@]43C)[C@@H]2C1
2. C/C=C(/C)C(=O)O[C@@H]1CC(C)(C)C[C@H]2C3=CC[C@@H]4[C@@]5(C)CC[C@H](O)C(C)(C)[C@@H]5CC[C@@]4(C)[C@]3(C)CC[C@@]12C(=O)O

[28.8, 25.1]

Look up inhibition of growth at 10 µM for the entries below, preserving their order.
1. C/C=C(/C)C(=O)O[C@@H]1CC(C)(C)C[C@H]2C3=CC[C@@H]4[C@@]5(C)CCC(=O)C(C)(C)[C@@H]5CC[C@@]4(C)[C@]3(C)CC[C@@]12C(=O)O
2. CC(C)=CC(=O)O[C@@H]1CC(C)(C)C[C@H]2C3=CC[C@@H]4[C@@]5(C)CCC(=O)C(C)(C)[C@@H]5CC[C@@]4(C)[C@]3(C)CC[C@@]12C(=O)O
3. CC(C)=CC(=O)O[C@@H]1CC(C)(C)C[C@H]2C3=CC[C@@H]4[C@@]5(C)CC[C@H](O)C(C)(C)[C@@H]5CC[C@@]4(C)[C@]3(C)CC[C@@]12C(=O)O

[17.4, 25.6, 13.4]

---

Please respond with reported growth at 0.01 µM for every item in the list.
# Tested on: HL-60(TB)
# procedure text: Growth inhibition of human HL-60(TB) cells assessed as cell growth at 10^-8 M by sulforhodamine B assay
# Type: functional
# cond: read-out: Activity
One number for each entry, in %.

I'm hoping you can list growth at 0.01 µM for every compound here, please.
1. C/C=C(/C)C(=O)O[C@@H]1CC(C)(C)C[C@H]2C3=CC[C@@H]4[C@@]5(C)CC[C@H](O)C(C)(C)[C@@H]5CC[C@@]4(C)[C@]3(C)CC[C@@]12C(=O)O
2. CC1(C)C[C@@H](O)[C@]2(C(=O)O)CC[C@]3(C)C(=CC[C@@H]4[C@@]5(C)C/C(=C\C=C\c6ccccc6)C(=O)C(C)(C)[C@@H]5CC[C@]43C)[C@@H]2C1
3. C/C=C(/C)C(=O)O[C@@H]1CC(C)(C)C[C@H]2C3=CC[C@@H]4[C@@]5(C)CCC(=O)C(C)(C)[C@@H]5CC[C@@]4(C)[C@]3(C)CC[C@@]12C(=O)O
4. CC(C)=CC(=O)O[C@@H]1CC(C)(C)C[C@H]2C3=CC[C@@H]4[C@@]5(C)CC[C@H](O)C(C)(C)[C@@H]5CC[C@@]4(C)[C@]3(C)CC[C@@]12C(=O)O
5. CC(C)=CC(=O)O[C@@H]1CC(C)(C)C[C@H]2C3=CC[C@@H]4[C@@]5(C)CCC(=O)C(C)(C)[C@@H]5CC[C@@]4(C)[C@]3(C)CC[C@@]12C(=O)O

[106, 101, 100, 101, 106]

---

# System: SW-620
# procedure text: Growth inhibition of human SW620 cells assessed as cell growth at 10^-6 M by sulforhodamine B assay
# Type: functional
# cond: read-out: Activity
So I've got a bunch of compounds here, and I need their growth at 1 µM values.
Give bare numbers, in %.

Recorded results for 3 compounds are shown here.
>>> reported_measurement("CC(C)=CC(=O)O[C@@H]1CC(C)(C)C[C@H]2C3=CC[C@@H]4[C@@]5(C)CCC(=O)C(C)(C)[C@@H]5CC[C@@]4(C)[C@]3(C)CC[C@@]12C(=O)O")
83
>>> reported_measurement("C/C=C(/C)C(=O)O[C@@H]1CC(C)(C)C[C@H]2C3=CC[C@@H]4[C@@]5(C)CC[C@H](O)C(C)(C)[C@@H]5CC[C@@]4(C)[C@]3(C)CC[C@@]12C(=O)O [Reduced Lantadene A]")
90
>>> reported_measurement("CC(C)=CC(=O)O[C@@H]1CC(C)(C)C[C@H]2C3=CC[C@@H]4[C@@]5(C)CC[C@H](O)C(C)(C)[C@@H]5CC[C@@]4(C)[C@]3(C)CC[C@@]12C(=O)O [Reduced Lantadene B]")
87

Report growth at 1 µM for each item below.
1. CC1(C)C[C@@H](O)[C@]2(C(=O)O)CC[C@]3(C)C(=CC[C@@H]4[C@@]5(C)C/C(=C\C=C\c6ccccc6)C(=O)C(C)(C)[C@@H]5CC[C@]43C)[C@@H]2C1
2. C/C=C(/C)C(=O)O[C@@H]1CC(C)(C)C[C@H]2C3=CC[C@@H]4[C@@]5(C)CCC(=O)C(C)(C)[C@@H]5CC[C@@]4(C)[C@]3(C)CC[C@@]12C(=O)O [LANTADENE A]

[91, 90]

---

# Test system: PC-3
# procedure text: Growth inhibition of human PC3 cells by sulforhodamine B assay
# Format: functional
# cond: read-out: TGI
Please go through the items and note down their TGI.

Worked cases, TGI given:
>>> reported_measurement("CC1(C)C[C@@H](O)[C@]2(C(=O)O)CC[C@]3(C)C(=CC[C@@H]4[C@@]5(C)C/C(=C\\C=C\\c6ccccc6)C(=O)C(C)(C)[C@@H]5CC[C@]43C)[C@@H]2C1")
"16.3 µM"
>>> reported_measurement("C/C=C(/C)C(=O)O[C@@H]1CC(C)(C)C[C@H]2C3=CC[C@@H]4[C@@]5(C)CC[C@H](O)C(C)(C)[C@@H]5CC[C@@]4(C)[C@]3(C)CC[C@@]12C(=O)O")
"2.84 µM"
>>> reported_measurement("C/C=C(/C)C(=O)O[C@@H]1CC(C)(C)C[C@H]2C3=CC[C@@H]4[C@@]5(C)CCC(=O)C(C)(C)[C@@H]5CC[C@@]4(C)[C@]3(C)CC[C@@]12C(=O)O")
"> 100 µM"
>>> reported_measurement("CC(C)=CC(=O)O[C@@H]1CC(C)(C)C[C@H]2C3=CC[C@@H]4[C@@]5(C)CCC(=O)C(C)(C)[C@@H]5CC[C@@]4(C)[C@]3(C)CC[C@@]12C(=O)O")
"89.1 µM"

API: the following record is the query input.
Return TGI measured with PC-3 given this compound: "CC(C)=CC(=O)O[C@@H]1CC(C)(C)C[C@H]2C3=CC[C@@H]4[C@@]5(C)CC[C@H](O)C(C)(C)[C@@H]5CC[C@@]4(C)[C@]3(C)CC[C@@]12C(=O)O"
21.9 µM

---

# procedure text: Growth inhibition of human NCI-ADR-RES cells assessed as cell growth at 10 uM by sulforhodamine B assay
# Assay type: functional
# cond: read-out: Activity
// returns False unless growth at 10 µM is strictly below 70%, in which case True

Below, 5 molecules whose answers are already recorded.
>>> group("CC1(C)C[C@@H](O)[C@]2(C(=O)O)CC[C@]3(C)C(=CC[C@@H]4[C@@]5(C)CC[C@H](O)C(C)(C)[C@@H]5CC[C@]43C)[C@@H]2C1")
"False"
>>> group("C/C=C(/C)C(=O)O[C@@H]1CC(C)(C)C[C@H]2C3=CC[C@@H]4[C@@]5(C)CCC(=O)C(C)(C)[C@@H]5CC[C@@]4(C)[C@]3(C)CC[C@@]12C(=O)O")
"False"
>>> group("CC(C)=CC(=O)O[C@@H]1CC(C)(C)C[C@H]2C3=CC[C@@H]4[C@@]5(C)CCC(=O)C(C)(C)[C@@H]5CC[C@@]4(C)[C@]3(C)CC[C@@]12C(=O)O")
"True"
>>> group("CC1(C)C[C@@H](O)[C@]2(C(=O)O)CC[C@]3(C)C(=CC[C@@H]4[C@@]5(C)C/C(=C\\C=C\\c6ccccc6)C(=O)C(C)(C)[C@@H]5CC[C@]43C)[C@@H]2C1")
"False"
>>> group("CC(C)=CC(=O)O[C@@H]1CC(C)(C)C[C@H]2C3=CC[C@@H]4[C@@]5(C)CC[C@H](O)C(C)(C)[C@@H]5CC[C@@]4(C)[C@]3(C)CC[C@@]12C(=O)O")
"True"

# check: growth at 10 µM < 70% for "COc1cc(/C=C2\C[C@]3(C)[C@H]4CC=C5[C@@H]6CC(C)(C)C[C@@H](O)[C@]6(C(=O)O)CC[C@@]5(C)[C@]4(C)CC[C@H]3C(C)(C)C2=O)ccc1O"
False

Same for "CC1(C)C[C@@H](O)[C@]2(C(=O)O)CC[C@]3(C)C(=CC[C@@H]4[C@@]5(C)CCC(=O)C(C)(C)[C@@H]5CC[C@]43C)[C@@H]2C1"
False
